# Test system: HCC-2998 colon
# experimental_details: NCI tumour cell line growth inhibition, 48 h; in the data active = GI50 below about 0.43 µM; inactive = the rest
Please answer using one outcome listed in class 1 = active, class 0 = inactive

[
  {
    "compound": "C=CCN1CC(=O)N2[C@@H](Cc3ccc(O)cc3F)C(=O)N(Cc3cccc(N4CC(N5CCN(CC)CC5)C4)n3)C[C@@H]2N1C(=O)NCc1ccccc1",
    "discrete_label": "class 1"
  },
  {
    "compound": "Cn1cc(C2=C(c3cccc(OC[C@@H](O)CO)c3)C(=O)NC2=O)c2ccccc21",
    "discrete_label": "class 0"
  },
  {
    "compound": "Cc1cccc2c3c(sc12)C(c1ccc(Cl)cc1)C(C#N)=C(N)O3 (configuration not stated)",
    "discrete_label": "class 0"
  },
  {
    "compound": "CCCCCO/N=C\\c1c2c(O)c3c(O)c(C)c4c(c3c1O)C(=O)C(C)(O/C=C\\C(OC)C(C)C(OC(C)=O)C(C)C(O)C(C)C(O)C(C)/C=C\\C=C(\\C)C(=O)N2)O4 (configuration not stated)",
    "discrete_label": "class 0"
  },
  {
    "compound": "c1ccc(-c2nc(N3CCNCC3)c3oc(-c4ccccc4)nc3n2)cc1",
    "discrete_label": "class 0"
  },
  {
    "compound": "Oc1ccc(C(c2ccc(O)cc2)c2ccc(Br)cn2)cc1",
    "discrete_label": "class 1"
  }
]

Consider now this further compound.
Short answer needed: outcome of this test for CC(=O)NCc1cccc(C#Cc2cncnc2Nc2ccc(OCc3cccc(F)c3)c(Cl)c2)c1 ?
class 0

* * *

# Tested on: IGROV1 ovarian
# experimental_details: NCI tumour cell line growth inhibition, 48 h
measured_endpoint: TGI (µM)
State the answer as a number, implicitly in µM.

Reference set (6 entries):
[
  {
    "compound": "C[N+]12C=CC=C1C(N1CCCC1)c1scc(-c3ccccc3)c12 (stereo not given)",
    "TGI [µM]": 31.6
  },
  {
    "compound": "Oc1c(I)cc(I)c2cccnc12",
    "TGI [µM]": 30.8
  },
  {
    "compound": "CCN(CC)CCCCCCNc1cc(OC)cc2cccnc12",
    "TGI [µM]": 4.86
  },
  {
    "compound": "CCCCCCCC1(N=[N+]=[N-])C(=O)Nc2ccccc2C1=O (stereo not given)",
    "TGI [µM]": 25.6
  },
  {
    "compound": "Cc1cc(C#Cc2ccc(C(C)(C)C)cc2)ccc1-n1c(/C=C/c2ccc(O)cc2O)nc2ccccc2c1=O",
    "TGI [µM]": 26.8
  },
  {
    "compound": "c1ccc2c(c1)Nc1ccncc1S2",
    "TGI [µM]": 99.6
  }
]

response.value for Cc1ccc(-c2nc([P+](c3ccccc3)(c3ccccc3)c3ccccc3)c(S(=O)(=O)c3ccc(C)cc3)o2)cc1 (field: TGI) = 3.15

Notebook: Cc1cc(N(CCC#N)CCC#N)ccc1/C(N=Nc1cccc(Cl)c1)=N/NC(=O)c1cc(Cl)ccc1O , TGI read as 10.2

* * *

# System: CCRF-CEM leukemia
# experimental_details: NCI tumour cell line growth inhibition, 48 h
measured_endpoint: TGI

Guide cases for TGI, answers given:
[
  {
    "compound": "C[N+](C)(C)c1ncnc2c1ncn2C1CC(O)C(CO)O1 (stereo unspecified)",
    "TGI": "> 100 µM"
  },
  {
    "compound": "O=C(CC1SC(=Nc2ccccc2Cl)NC1=O)Nc1ccc(Cl)cc1Cl (stereo unspecified)",
    "TGI": "> 100 µM"
  },
  {
    "compound": "[O-]c1c2cc(-[n+]3c(-c4ccccc4)cc(-c4ccccc4)cc3-c3ccccc3)cc1COCCOCCOCCOCCOC2",
    "TGI": "> 100 µM"
  },
  {
    "compound": "Cc1ccc(C)c(N2C(=O)C(=O)C(c3nc4ccccc4s3)/C(=N/NC(=O)NN)C2=O)c1 (stereo unspecified)",
    "TGI": "> 100 µM"
  }
]

Entry NC(=O)C(=CNC(=S)Nc1ccccc1)C(N)=O ; TGI = > 100 µM

* * *

Listed here: items and their measured TGI.
# Tested on: HL-60(TB) leukemia
# experimental_details: NCI tumour cell line growth inhibition, 48 h

Below are worked cases with known answers.
[
  {
    "molecule": "O=c1[nH]nc(Cc2ccccc2)n1C1CCCC1",
    "subject_of_test": "HL-60(TB) leukemia",
    "TGI": "> 100 µM"
  },
  {
    "molecule": "Nc1nc(Nc2ccccc2SSc2ccccc2Nc2nc(N)nc(C(Cl)(Cl)Cl)n2)nc(C(Cl)(Cl)Cl)n1",
    "subject_of_test": "HL-60(TB) leukemia",
    "TGI": "12.1 µM"
  },
  {
    "molecule": "COC(=O)c1cc2c(c3c1CC(Cc1ccccc1)C3=O)CCC2 (stereo unspecified)",
    "subject_of_test": "HL-60(TB) leukemia",
    "TGI": "> 100 µM"
  },
  {
    "molecule": "O=[N+]([O-])c1ccc(OC2CC3C4C=CC3C2C4)c([N+](=O)[O-])c1 (stereo unspecified)",
    "subject_of_test": "HL-60(TB) leukemia",
    "TGI": "> 100 µM"
  },
  {
    "molecule": "C=C1CCC2[C@@H](CCC3[C@]2(C)CCC[C@]3(C)C(=O)OC)C1CC=O (stereo partly specified)",
    "subject_of_test": "HL-60(TB) leukemia",
    "TGI": "40.1 µM"
  },
  {
    "molecule": "CC1CN=C(N(Cc2ccccc2)C(=O)Nc2ccc(Cl)c(Cl)c2)S1 (stereo unspecified)",
    "subject_of_test": "HL-60(TB) leukemia",
    "TGI": "> 10 µM"
  },
  {
    "molecule": "CCOC(=O)/C(C#N)=C(O)/C(=C\\c1ccc(Br)cc1)NC(=O)c1ccccc1",
    "subject_of_test": "HL-60(TB) leukemia",
    "TGI": "> 100 µM"
  },
  {
    "molecule": "COC(=O)c1ccc(S)c(S(=O)(=O)Nc2n[nH]c(N)n2)c1",
    "subject_of_test": "HL-60(TB) leukemia",
    "TGI": "> 100 µM"
  }
]

Documented TGI of Oc1c(I)cc(I)c2cccnc12 : > 100 µM

Just so you know, measured TGI for Cc1c(-c2ccccc2)[nH]c2cc(Cl)ccc2c1=O came out at > 100 µM

Measured TGI of Fc1ccc(N2C(=S)SC(=Nc3ccccc3)C2=Nc2ccccc2)cc1 : > 100 µM

* * *

# System: SNB-19 CNS
# experimental_details: NCI tumour cell line growth inhibition, 48 h
measured_endpoint: TGI

[
  {
    "molecule": "O=c1c2cc(S(=O)(=O)O)ccc2nc(COc2ccc(Oc3ccc(Cl)cc3Cl)cc2)n1-c1ccc(Oc2ccc(Cl)cc2)cc1Cl",
    "TGI": "67.7 µM"
  },
  {
    "molecule": "CCCC1CCC(=C2C(=O)CCC2=O)O1 (stereo unspecified)",
    "TGI": "> 100 µM"
  },
  {
    "molecule": "CC1CN=C(N(Cc2ccccc2)C(=O)Nc2ccc(Cl)c(Cl)c2)S1 (stereo unspecified)",
    "TGI": "> 100 µM"
  },
  {
    "molecule": "C=C1CC(c2ccc(OCCCN3C(=O)c4ccccc4C3=O)cc2)OC1=O (stereo unspecified)",
    "TGI": "25.5 µM"
  },
  {
    "molecule": "COc1ccc(/C=N/n2c(C)n[nH]c2=O)c(OC)c1",
    "TGI": "> 100 µM"
  },
  {
    "molecule": "Cc1cc(N(CCC#N)CCC#N)ccc1/C(N=Nc1cccc(Cl)c1)=N/NC(=O)c1cc(Cl)ccc1O",
    "TGI": "> 100 µM"
  },
  {
    "molecule": "CC1OC(OC2C(O)CC(OC3C(O)CC(OC4CCC5(C)C(CCC6C5CC(O)C5(C)C(C7=CC(=O)OC7)CCC65O)C4)OC3C)OC2C)CC(O)C1O (stereo unspecified)",
    "TGI": "0.238 µM"
  },
  {
    "molecule": "O=C(c1nc2ccccc2[nH]c1=O)C(O)c1ccccc1 (stereo unspecified)",
    "TGI": "> 100 µM"
  }
]

# TGI (molecule: NC(=O)c1csc(C2OC(COP(=O)(O)CP(=O)(O)OCC3OC(n4cnc5c(N)ncnc54)C(O)C3O)C(O)C2O)n1 (stereo unspecified) ) is > 100 µM

response.value for CCC1OC2C(CC=C(C)C)=C3OC(C)(O)C(C)(CC)C(OC(C)=O)C3=C3OC(=O)C=C1C32 (stereo unspecified) (field: TGI) = 63.2 µM

Recorded TGI (molecule O=c1[nH]cc(F)c(=O)n1C1OC(CO)C(O)C1O (stereo unspecified) ): > 100 µM

Entry source: PubChem BioAssay (NCI)
